normalized growth values, listed per item
# Assay Protocol: chemical genetic growth profiling, strain panel (AID 1159580);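 note: tested at 20 µM; growth read once vehicle control cultures reached saturation at 30 °C; 1 = growth at the plate median or of vehicle wells; lower values mean less growth of the strain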
# Run Conditions: S. cerevisiae deletion strains, growth OD, locus YPL051W, strain arl3, hits give low values
The campaign covered roughly 5,500 compounds. About 2,000 (36%) were called active. Another 18% or so got no clear call; they are omitted. The list shows a part of the results.

Answered examples (6):
Compound	normalized growth
OC[C@@H](O)[C@@H](O[C@@H]1O[C@H](CO)[C@@H](O)[C@H](O)[C@H]1O)[C@H](O)[C@@H](O)CO	1.02 (inactive)
O=[N+]([O-])c1cc([As](=O)(O)O)ccc1O	0.967 (inactive)
Nc1ncnc2c1ncn2C1C[C@H](O)[C@@H](CO)O1 (some centres undefined)	1.01 (inactive)
O=C1C=CC2=C3c4cc(O)c(O)cc4C[C@@]3(O)COC2=C1	0.968 (inactive)
COC(=O)C[C@H]1C(C)(C)C(=O)[C@@H]2CC3=C4CC(=O)O[C@@H](c5ccoc5)[C@]4(C)CCC3[C@@]1(C)C2=O (some centres undefined)	0.992 (inactive)
COc1cc2c(c(OC)c1OC)-c1ccc(OC)c(=O)cc1[C@@H](NC(C)=O)CC2	1.02 (inactive)

Fill in: normalized growth of O=[N+]([O-])c1cc(O)c(O)c([N+](=O)[O-])c1 is ___
1.04 (inactive)

# iterate: CC1(C)C(C(Cl)Cl)C2(Cl)C(Cl)C(Cl)C1(Cl)C2(Cl)Cl (centres undefined)
0.937 (inactive)

# iterate: O=C(O)c1ccccc1Nc1cccc(C(F)(F)F)c1
0.831 (active)

# iterate: O=c1[nH]c(=O)n(C2C[C@@H](O)[C@@H](CO)O2)cc1F (some centres undefined)
1.02 (inactive)

# iterate: Nc1ccc([As](=O)(O)O)cc1
1.01 (inactive)

# iterate: Cc1ccc(/C(=C\CN2CCCC2)c2ccccn2)cc1
1.02 (inactive)

# iterate: C/C=C/c1ccc2c(c1)OCO2
1.01 (inactive)

# iterate: OC[C@@H]1CCCN2CCCC[C@H]12
1.04 (inactive)

# iterate: CC(=O)/C(=C\c1ccccc1)CC(=O)O
1.01 (inactive)

# iterate: O=C(O)/C=C/C=C/c1ccccc1
0.83 (active)

# iterate: CCOC(=O)c1oc2c(OC)c(O)cc(O)c2c(=O)c1-c1cc(OC)c(OC)c(OC)c1
0.963 (inactive)

# iterate: CC(=O)Nc1cc([As](=O)(O)O)ccc1O
1 (inactive)

# iterate: COc1cccc(/C=C/C(=O)O)c1C(C)C
0.996 (inactive)

# iterate: Nc1ncnc2c1ncn2[C@@H]1O[C@H](CO)[C@@H](O)[C@H]1O
0.988 (inactive)

# iterate: C=CC(C1=CC(=O)C(OC)=CC1=O)c1ccc(OC)cc1 (centres undefined)
0.657 (active)

# iterate: C=C(C)C1CC=C(CO)CC1 (centres undefined)
0.99 (inactive)

# iterate: Cc1occc(=O)c1O
0.973 (inactive)

# iterate: CC1(C)CCCC2(C)C3C1[C@@H](O)C2(C)C[C@H]3O (some centres undefined)
1 (inactive)
